- tested-on: Nonstructural protein 5 (Dengue virus, UniProt V5TFZ2)
- Sequence (V5TFZ2 whole entry): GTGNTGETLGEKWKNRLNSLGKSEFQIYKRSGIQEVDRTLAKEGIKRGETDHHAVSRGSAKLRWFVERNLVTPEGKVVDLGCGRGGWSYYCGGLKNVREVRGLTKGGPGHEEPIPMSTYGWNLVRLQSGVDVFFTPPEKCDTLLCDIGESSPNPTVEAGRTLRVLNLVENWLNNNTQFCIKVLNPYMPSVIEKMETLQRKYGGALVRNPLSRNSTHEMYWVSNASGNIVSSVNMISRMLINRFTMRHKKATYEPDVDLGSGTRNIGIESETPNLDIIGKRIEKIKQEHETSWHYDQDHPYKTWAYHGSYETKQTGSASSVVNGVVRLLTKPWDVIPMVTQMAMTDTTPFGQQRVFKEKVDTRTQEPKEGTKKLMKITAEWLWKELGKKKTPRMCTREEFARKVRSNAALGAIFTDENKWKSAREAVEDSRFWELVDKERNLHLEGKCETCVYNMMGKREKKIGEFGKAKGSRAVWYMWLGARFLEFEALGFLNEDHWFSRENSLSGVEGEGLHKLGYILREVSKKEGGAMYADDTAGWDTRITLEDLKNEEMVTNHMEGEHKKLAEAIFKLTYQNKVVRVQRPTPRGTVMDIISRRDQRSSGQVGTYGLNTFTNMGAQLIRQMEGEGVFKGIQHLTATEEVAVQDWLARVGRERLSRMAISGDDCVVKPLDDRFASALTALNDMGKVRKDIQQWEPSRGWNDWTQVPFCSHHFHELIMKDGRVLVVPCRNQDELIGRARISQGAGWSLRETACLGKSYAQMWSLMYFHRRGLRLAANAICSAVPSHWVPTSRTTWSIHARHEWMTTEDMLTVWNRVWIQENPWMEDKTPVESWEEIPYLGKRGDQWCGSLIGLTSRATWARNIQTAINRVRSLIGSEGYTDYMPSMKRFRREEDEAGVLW
- assay-summary: Binding affinity to full length His-tagged DENV-2 NS5 assessed as dissociation constant
- Design: species or system dengue virus type 2
outcome-measure: pKd
Interpret pKd as the negative base-10 log of the concentration measured in mol/L.

Exercise: Specify pKd for `O=C1N/C(=N\c2nnc(-c3ccccc3Cl)s2)S/C1=C\c1cccc(F)c1` and stop.
Solution: 5.04

----------
- Test system: dengue virus type 1
- assay-summary: Antiviral activity against DENV-1 infected in African green monkey Vero E6 cells
- Format: functional, organism-based
- assay-conditions: Vero C1008
outcome-measure: pEC50
Interpret pEC50 as the negative base-10 log of the concentration measured in mol/L.

Exercise: Provide the reported pEC50 (system: dengue virus type 1) for `COc1ccc(-c2cc(C(=O)N[C@@H](Cc3ccc(O)cc3)C(=O)O)c3sc4ccc(OC5CCCCC5)cc4n3c2=O)cc1F`
Solution: 5.29

----------
- assay-summary: Binding affinity to DENV RNA-dependent RNA polymerase assessed as dissociation constant
- Set-up: species or system Dengue virus
outcome-measure: Kd (nM)
Entry rule: numbers only, all in nM.

Exercise: Specify Kd for Cc1ccc(C2N(c3ccccc3)CC3=C(CC(C)(C)CC3=O)N2c2ccccc2)cc1 (stereo unspecified) and stop.
Solution: 900

----------
- tested-on: NS5 (Zika virus)
- assay-summary: Inhibition of Zika virus wild type RNA-dependent RNA polymerase using ATP as substrate
outcome-measure: IC50 (nM)
Entry rule: numbers only, all in nM.

Exercise: Specify IC50 for `CCNC(=O)Cn1cnc(NC(=O)c2cc(-c3ccc(C)cc3)nc3onc(C)c23)n1` and stop.
Solution: 1130

----------
- System: Zika virus
- assay-summary: Antiviral activity against Zika virus RNA-dependent RNA polymerase infected in African green monkey Vero cells
- Assay type: functional, organism-based
outcome-measure: pEC50
Interpret pEC50 as the negative base-10 log of the concentration measured in mol/L.

Exercise: Specify pEC50 for `O=C(NC(=S)Nc1ccc(N2CCN(C(=O)c3cccs3)CC2)cc1)c1sc2ccccc2c1Cl` and stop.
Solution: 7.03

----------
- assay-summary: Inhibition of DENV-3 full length NS5/RNA-dependent RNA polymerase
- Set-up: species or system dengue virus type 3
outcome-measure: IC50 (µM)
Entry rule: numbers only, all in µM.

Exercise: Specify IC50 for `CC(=O)Oc1ccc2oc(=O)sc2c1` and stop.
Solution: 287

----------
- Tested on: dengue virus type 4
- assay-summary: Antiviral activity against DENV-4 infected hamster BHK-21 cells assessed as reduction in viral replication incubated for 4 hrs
- Format: functional, organism-based
outcome-measure: IC50

Exercise: Specify IC50 for `IVERMECTIN` and stop.
Solution: 1900 nM

----------
- assay-summary: Cytotoxicity against hamster BHK-21 cells
- Format: toxicity, cell-based, Mesocricetus auratus
In this section, each of the molecules is paired with its reported CC50.
Entry rule: numbers only, all in µM.

{"structure-smiles-string": "C#Cc1c(C#N)ncn1[C@@H]1O[C@H](CO)[C@@H](O)[C@H]1O", "CC50 (µM)": 3.99}

Please examine the following record next.
Exercise: Specify CC50 for `C#Cc1c(C(N)=O)ncn1[C@@H]1O[C@H](CO)[C@@H](O)[C@H]1O` and stop.
Solution: 1.24

----------
- assay-summary: Inhibition of DENV RNA polymerase
- Set-up: species or system Dengue virus
outcome-measure: pIC50
Interpret pIC50 as the negative base-10 log of the concentration measured in mol/L.

Exercise: Specify pIC50 for `C[C@@]1(O)[C@H](O)[C@@H](CO)O[C@H]1n1ccc(N)nc1=O` and stop.
Solution: 4.95

----------
- tested-on: Genome polyprotein (dengue virus type 2, UniProt P29990)
- Sequence (P29990 1346-1475 limits assumed): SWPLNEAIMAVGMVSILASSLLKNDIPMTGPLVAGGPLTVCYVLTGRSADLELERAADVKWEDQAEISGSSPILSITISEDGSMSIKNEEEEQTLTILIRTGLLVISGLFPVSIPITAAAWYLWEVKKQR
- Sequence (P29990 1476-2093 limits assumed): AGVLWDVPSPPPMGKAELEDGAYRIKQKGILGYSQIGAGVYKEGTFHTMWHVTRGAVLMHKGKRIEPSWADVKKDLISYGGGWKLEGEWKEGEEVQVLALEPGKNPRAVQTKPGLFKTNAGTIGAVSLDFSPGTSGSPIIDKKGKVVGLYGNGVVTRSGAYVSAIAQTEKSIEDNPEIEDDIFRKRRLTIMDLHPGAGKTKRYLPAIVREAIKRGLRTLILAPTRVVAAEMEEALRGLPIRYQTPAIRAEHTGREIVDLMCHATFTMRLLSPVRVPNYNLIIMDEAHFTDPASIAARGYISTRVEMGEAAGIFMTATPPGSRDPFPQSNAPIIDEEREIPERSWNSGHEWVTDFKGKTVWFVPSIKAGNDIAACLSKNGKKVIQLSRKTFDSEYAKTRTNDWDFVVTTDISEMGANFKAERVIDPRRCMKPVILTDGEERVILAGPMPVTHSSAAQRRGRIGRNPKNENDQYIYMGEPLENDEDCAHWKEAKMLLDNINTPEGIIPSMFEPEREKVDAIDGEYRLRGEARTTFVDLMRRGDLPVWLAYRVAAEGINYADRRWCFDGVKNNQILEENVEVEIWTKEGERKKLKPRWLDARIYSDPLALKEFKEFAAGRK
outcome-measure: IC50
Don't forget the unit after the value.

Exercise: Provide the reported IC50 (system: Genome polyprotein (dengue virus type 2, UniProt P29990)) for `O=C(N[C@@H](Cc1ccc(O)cc1)C(=O)O)c1cc(-c2ccccc2)c(=O)n2c1sc1ccc(OC3CCCCC3)cc12`
Solution: 9.61 µM

----------
- assay-summary: Cytotoxicity against African green monkey Vero cells
- Type: toxicity, cell-based
- assay-conditions: chlorocebus sabaeus
outcome-measure: CC50 (µM)
Entry rule: numbers only, all in µM.

Solved entries (count: 3):
{"molecule": "CCCC/C=C/C#CCCCCCCCC(=O)O", "unit-of-measurement": "µM", "measured-number": 30}
{"molecule": "CCCCC#CC#CC#CCCCCCCCC(=O)O", "unit-of-measurement": "µM", "measured-number": 30}
{"molecule": "O[C@H]1[C@H]2c3cc4c(cc3CN3CCC(=C[C@@H]1O)[C@H]23)OCO4", "unit-of-measurement": "µM", "measured-number": 21}

Exercise: Specify CC50 for CCCC/C=C/C#CC#CCCCCCCCC(=O)O [EXOCARPIC ACID] and stop.
Solution: 23

----------
- tested-on: NS5 (Zika virus, UniProt A0A143MHK7)
- Sequence (A0A143MHK7 whole entry): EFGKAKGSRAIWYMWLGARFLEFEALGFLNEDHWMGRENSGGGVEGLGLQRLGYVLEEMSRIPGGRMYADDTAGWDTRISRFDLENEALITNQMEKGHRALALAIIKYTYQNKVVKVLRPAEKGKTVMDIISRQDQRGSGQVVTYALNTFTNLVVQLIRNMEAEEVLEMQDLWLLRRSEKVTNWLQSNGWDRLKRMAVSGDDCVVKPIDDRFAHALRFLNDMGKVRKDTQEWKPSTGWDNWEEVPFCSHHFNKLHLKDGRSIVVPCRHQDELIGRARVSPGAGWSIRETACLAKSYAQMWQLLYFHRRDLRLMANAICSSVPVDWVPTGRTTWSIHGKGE
- assay-summary: Inhibition of Zika virus RNA-dependent RNA polymerase
outcome-measure: IC50 (nM)
Entry rule: numbers only, all in nM.

Exercise: Specify IC50 for `Nc1ncnc2c1c(-c1cc3ccccc3o1)cn2[C@@H]1O[C@H](CO)[C@@H](O)[C@H]1O` and stop.
Solution: 500

----------
- System: dengue virus type 3
- assay-summary: Antiviral activity against DENV-3 infected in African green monkey Vero E6 cells
- Format: functional, organism-based
- assay-conditions: Vero C1008
outcome-measure: EC50 (µM)
Entry rule: numbers only, all in µM.

Exercise: Specify EC50 for `COc1ccc(-c2cc(C(=O)N[C@@H](Cc3ccc(O)cc3)C(=O)O)c3sc4ccc(OC5CCCCC5)cc4n3c2=O)cc1F` and stop.
Solution: 3.5

----------
- tested-on: NS5 (Zika virus)
- assay-summary: Inhibition of Zika virus RNA-dependent RNA polymerase activity
outcome-measure: IC50 (µM)
Entry rule: numbers only, all in µM.

Solved entries (count: 2):
{"structure-smiles-string": "CCC(CC)COC(=O)[C@H](C)N[P@](=O)(OC[C@H]1O[C@@](C#N)(c2ccc3c(N)ncnn23)[C@H](O)[C@@H]1O)Oc1ccccc1", "measured-number": 1.36}
{"structure-smiles-string": "C[C@@]1(O)[C@H](O)[C@@H](COP(=O)(O)OP(=O)(O)OP(=O)(O)O)O[C@H]1n1ccc2c(N)ncnc21", "measured-number": 8.92}

Please examine the following record next.
Exercise: Provide the reported IC50 (system: NS5 (Zika virus)) for `C[C@@]1(O)[C@H](O)[C@@H](COP(=O)(O)OP(=O)(O)OP(=O)(O)O)O[C@H]1n1cnc2c(N)ncnc21`
Solution: 5.26

----------
- Tested on: dengue virus type 2
- assay-summary: Antiviral activity against DENV-2 incubated for 72 hrs by MTT assay
- Type: functional, organism-based
outcome-measure: EC50 (µM)
Entry rule: numbers only, all in µM.

Exercise: Provide the reported EC50 (system: dengue virus type 2) for `CN[C@@H]1CC[C@@H]2CN(c3c(F)c(N)c4c(=O)c(C(=O)O)cn(C5CC5)c4c3F)C[C@@H]21`
Solution: 9.2

----------
- assay-summary: Inhibition od DENV-2 RNA-dependent RNA polymerase
- Parameters: species or system dengue virus type 2
outcome-measure: pIC50
Interpret pIC50 as the negative base-10 log of the concentration measured in mol/L.

Exercise: Specify pIC50 for `O=C(O)c1ccccc1NS(=O)(=O)c1cccc(-c2cnn(Cc3ccccc3)c2)c1` and stop.
Solution: 6.15

----------
- System: dengue virus type 3
- assay-summary: Antiviral activity against DENV-3 NS5 infected in African green monkey Vero cells
- Format: functional, organism-based
outcome-measure: pEC50
Interpret pEC50 as the negative base-10 log of the concentration measured in mol/L.

Exercise: Specify pEC50 for `CC(=O)Oc1ccc2oc(=O)sc2c1` and stop.
Solution: 4.53

----------
- Test system: Zika virus
- assay-summary: Antiviral activity against Zika virus
- Type: functional, organism-based
outcome-measure: pEC50
Interpret pEC50 as the negative base-10 log of the concentration measured in mol/L.

Exercise: Specify pEC50 for `Nc1ncnc2c1c(-c1cc3ccccc3o1)cn2[C@@H]1O[C@H](CO)[C@@H](O)[C@H]1O` and stop.
Solution: 5.66
